Test system: NHBE cells
Assay: Biolog metabolic array: substrate use by NHBE cells with or without CA09 infection
Assay type: cell-based, human
Details: Virus (CA09-infected NHBE cells, MOI 1); 3 hr
observable: 590 nm absorbance normalized to zero hour (substrate use), 3 hr
Respond using a number only.

Lookup result for OC[C@H]1O[C@H](OC[C@H]2OC(O)(CO)[C@@H](O)[C@@H]2O)[C@H](O)[C@@H](O)[C@@H]1O (some centres unmarked) ; measured 590 nm absorbance normalized to zero hour (substrate use), 3 hr: 0.28

Now for a further compound.
Lookup result for O=C(O)CC(CC(=O)O)C(=O)O ; measured 590 nm absorbance normalized to zero hour (substrate use), 3 hr: 0.29
